Could you please report measured IC50 for the items listed next?
Target: human NLRP3 (Homo sapiens (Human), UniProt Q96P20)
Sequence (Q96P20 whole entry): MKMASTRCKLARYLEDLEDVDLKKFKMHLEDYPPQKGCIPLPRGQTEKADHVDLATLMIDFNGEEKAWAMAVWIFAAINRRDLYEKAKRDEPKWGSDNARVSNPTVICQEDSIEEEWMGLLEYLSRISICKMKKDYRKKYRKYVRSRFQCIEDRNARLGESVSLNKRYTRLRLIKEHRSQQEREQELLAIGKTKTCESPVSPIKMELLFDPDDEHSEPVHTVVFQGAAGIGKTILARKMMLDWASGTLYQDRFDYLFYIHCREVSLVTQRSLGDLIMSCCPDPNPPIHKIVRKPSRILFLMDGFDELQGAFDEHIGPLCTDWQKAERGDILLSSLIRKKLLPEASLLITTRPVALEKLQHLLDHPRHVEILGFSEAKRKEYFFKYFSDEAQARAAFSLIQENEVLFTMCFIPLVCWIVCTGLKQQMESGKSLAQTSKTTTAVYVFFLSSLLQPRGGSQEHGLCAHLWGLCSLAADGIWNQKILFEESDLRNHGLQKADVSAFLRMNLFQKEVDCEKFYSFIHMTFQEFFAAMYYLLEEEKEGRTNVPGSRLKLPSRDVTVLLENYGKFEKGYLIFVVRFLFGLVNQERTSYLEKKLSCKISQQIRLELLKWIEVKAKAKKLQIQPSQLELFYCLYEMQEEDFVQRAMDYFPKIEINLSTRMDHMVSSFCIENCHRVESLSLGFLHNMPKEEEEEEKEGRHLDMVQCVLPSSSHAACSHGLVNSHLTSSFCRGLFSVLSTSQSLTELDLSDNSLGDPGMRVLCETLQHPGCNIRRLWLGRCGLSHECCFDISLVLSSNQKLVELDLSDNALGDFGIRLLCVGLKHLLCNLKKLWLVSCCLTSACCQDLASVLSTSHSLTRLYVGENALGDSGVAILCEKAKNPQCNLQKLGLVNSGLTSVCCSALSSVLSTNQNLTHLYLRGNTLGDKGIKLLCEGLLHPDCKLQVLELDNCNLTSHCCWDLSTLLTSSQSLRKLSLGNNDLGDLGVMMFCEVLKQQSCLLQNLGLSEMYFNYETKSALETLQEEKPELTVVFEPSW
Test: Scintillation Proximity (SPA) NLRP3 Assay: displacement of 3H-MCC950
Type: binding
Conditions: SPA IC50, displacement of 3H-MCC950

Example results:
C[C@H]1C[C@H]2CC[C@@H]([C@H](NC(=O)C3(c4ccc(C(F)(F)F)cc4)CC3)C1)N2c1nnn[nH]1 [104G*] = 50 to 100 µM
C[C@@H]1C[C@@H]2CC[C@H]([C@H](NC(=O)C3(c4ccc(C(F)(F)F)cc4)CC3)C1)N2c1nnn[nH]1 [104E*] = 10 to 50 µM

Then this compound:
So what's the measured IC50 for this one? O=C(N[C@@H]1C[C@@H](C(F)(F)F)[C@@H]2CC[C@H]1N2c1nnn[nH]1)C1(c2ccc(Cl)cc2)CC1 (single isomer, unassigned) [103A*]
< 1 µM

----------
Molecular target: human NLRP3 (Homo sapiens (Human), UniProt Q96P20)
Experiment: Scintillation Proximity (SPA) NLRP3 Assay: displacement of 3H-MCC950
Assay type: binding
Conditions: SPA IC50, displacement of 3H-MCC950
MEASUREMENT KIND: IC50

Before answering, review these 3 worked examples.
O=C(N[C@@H]1CCC[C@@H]2CC[C@H]1N2c1nnn[nH]1)C1(c2ccc(Cl)cc2)CC1 (single isomer, unassigned) = 1 to 10 µM
O=C(NC1CCC[C@H]2CC[C@@H]1N2c1nnn[nH]1)C1(c2ccc(C3CC3)cc2O)CC1 (single isomer, unassigned) [93D*] = 1 to 10 µM
C[C@@H]1C[C@H]2CC[C@@H]([C@@H](NC(=O)C3(c4ccc(C(F)(F)F)cc4)CC3)C1)N2c1nnn[nH]1 [104D*] = 10 to 50 µM

Would you mind giving IC50 for every compound in the list below?
1. O=C(N[C@@H]1CCC[C@H]2CC[C@@H]1N2c1nnn[nH]1)C1(c2ccc(Cl)cc2)CC1 (single isomer, unassigned)
2. O=C(N[C@H]1CCC[C@@H]2CC[C@H]1N2c1nnn[nH]1)C1(c2ccc(Cl)cc2)CC1 (single isomer, unassigned)
3. C[C@@H]1C[C@@H]2CC[C@H]([C@@H](NC(=O)C3(c4ccc(C(F)(F)F)cc4)CC3)C1)N2c1nnn[nH]1 [104F*]

["> 100 µM", "> 100 µM", "10 to 50 µM"]

----------
Biological target: human NLRP3 (Homo sapiens (Human))
Assay: Scintillation Proximity (SPA) NLRP3 Assay: displacement of 3H-MCC950
Format: binding
Conditions: displacement of 3H-MCC950; read-out: SPA IC50
pIC50: −log10 of the molar value.
For each of the compounds below, state its pIC50.

Here are 5 compounds together with their reported answers.
Cc1ccc(C2(C(=O)N[C@@H]3C[C@@H](C)CCN(c4nnn[nH]4)C3)CC2)c(O)c1F (single isomer, unassigned) [22C*] = 4.30 to 5.00
O=C(N[C@@H]1CCC[C@@H]2CC[C@H]1N2c1nnn[nH]1)C1(c2ccc(C3CC3)cc2O)CC1 [93A*] = > 6.00
O=C(N[C@@H]1CCCCN(c2nnn[nH]2)C1)C1(c2ccc(Cl)cc2)CC1 [Compound 51A] = 5.00 to 6.00
O=C(N[C@H]1CCCN(c2nnn[nH]2)C1)C1(c2ccc(Cl)cc2)CC1 [Compound 10B] = < 4.00
C[C@H]1C[C@@H](NC(=O)C2(c3ccc(Cl)cc3O)CC2)CN(c2nnn[nH]2)C1 [Compound 47A] = > 6.00

Please state pIC50 for every compound in the list that follows.
1. C[C@@H]1CCN(c2nnn[nH]2)C[C@@H](NC(=O)C2(c3ccc(C(F)(F)F)cc3O)CC2)C1 (single isomer, unassigned) [63B*]
2. Cc1cc(C2(C(=O)N[C@H]3C[C@H](C)CCN(c4nnn[nH]4)C3)CC2)ccc1C(F)(F)F (single isomer, unassigned) [6B*]

["> 6.00", "4.00 to 4.30"]

----------
For each entry below, report its pIC50 value.
Molecular target: human NLRP3 (Homo sapiens (Human))
Assay: Human PBMC NLRP3 Assay (LPS priming, ATP stimulation, cytokine measurement)
Type: cell-based
Conditions: PBMC IC50, human PBMC, LPS priming, ATP stimulation
pIC50: −log10 of the molar value.

O=C(N[C@@H]1CC[C@H]2CC[C@@H]1N2c1nnn[nH]1)C1(c2ccc(OC(F)F)cc2O)CC1 [77C*] = 7.00 to 8.00
Cc1ccc(C2(C(=O)N[C@@H]3C[C@@H](C)[C@@H]4CC[C@H]3N4c3nnn[nH]3)CC2)cc1 [87A*] = 7.00 to 8.00
O=C(N[C@@H]1CCC[C@@H]2CC[C@H]1N2c1nnn[nH]1)C1(c2ccc(C(F)(F)F)cc2O)CC1 [88A*] = > 8.00

Okay, next one:
For the molecule C[C@@H]1C[C@@H](NC(=O)C2(c3ccc(C(F)(F)F)cc3)CC2)[C@H]2CC[C@@H]1N2c1nnn[nH]1 [79A*] , what pIC50 is on record?
> 8.00

----------
Target: UniProtKB Q96P20
Test: Human Whole Blood (hWB) NLRP3 Assay (LPS/ATP, IL-1β)
Format: cell-based
Conditions: human whole blood, LPS/ATP, IL-1β; read-out: hWB IC50
pIC50: −log10 of the molar value.
MEASUREMENT KIND: pIC50

// known answers, use as guide
C[C@@H]1CCN(c2nnn[nH]2)C[C@H](NC(=O)C2(c3ccc(Cl)nc3O)CC2)C1 (single isomer, unassigned) [100A*] = < 5.52
C[C@H]1C[C@@H](NC(=O)C2(c3ccc(OC(F)F)cc3)CC2)[C@H]2CC[C@@H]1N2c1nnn[nH]1 (single isomer, unassigned) [35E*] = < 5.52
C[C@H]1C[C@@H](NC(=O)C2(c3ccc(C4CC4(F)F)cc3O)CC2)CN(c2nnn[nH]2)C1 (single isomer, unassigned) [94A*] = < 5.52
C[C@@H]1CCN(c2nnn[nH]2)C[C@H](NC(=O)C2(c3ccc(Cl)c(F)c3O)CC2)C1 (single isomer, unassigned) [18A*] = > 6.00
C[C@H]1C[C@@H](NC(=O)C2(c3ccc(Cl)cc3O)CC2)CN(c2nnn[nH]2)C1 [Compound 47A] = > 6.00
C[C@@H]1CCN(c2nnn[nH]2)C[C@H](NC(=O)C2(c3cnc(Cl)cc3O)CC2)C1 (single isomer, unassigned) [99A*] = 5.52 to 5.70
O=C(N[C@@H]1CCCN(c2nnn[nH]2)C1)C1(c2ccc(Cl)cc2O)CC1 [Compound 15A] = > 6.00
C[C@H]1CC[C@@H](NC(=O)C2(c3ccc(Cl)cc3O)CC2)CN(c2nnn[nH]2)C1 (single isomer, unassigned) [90A*] = < 5.52

// input: 6 molecules below; output: pIC50 for each
1. C[C@H]1CC[C@@H](NC(=O)C2(c3ccc(C(F)(F)F)cc3O)CC2)CN(c2nnn[nH]2)C1 [89A*]
2. C[C@@H]1CCN(c2nnn[nH]2)C[C@H](NC(=O)C2(c3ccc(Cl)cc3O)CC2)C1 (single isomer, unassigned) [60A*]
3. O=C(N[C@@H]1CCCN(c2nnn[nH]2)C1)C1(c2ccc(Br)cc2)CC1 [Compound 39A]
4. Cc1ccc(C2(C(=O)N[C@@H]3C[C@H](C)CCN(c4nnn[nH]4)C3)CC2)c(O)c1F (single isomer, unassigned) [74A*]
5. C[C@H]1C[C@@H](NC(=O)C2(c3ccc(C(F)F)cc3O)CC2)CN(c2nnn[nH]2)C1 [Compound 48A]
6. C[C@H]1C[C@@H](NC(=O)C2(c3ncc(C(F)(F)F)cc3O)CC2)CN(c2nnn[nH]2)C1 [Compound 25A]

1: 5.52 to 5.70; 2: > 6.00; 3: 5.70 to 6.00; 4: > 6.00; 5: > 6.00; 6: < 5.52

----------
For each of the compounds below, state its pIC50.
Biological target: human NLRP3 (Homo sapiens (Human))
Assay: Human Whole Blood (hWB) NLRP3 Assay (LPS/ATP, IL-1β)
Format: cell-based
Conditions: human whole blood, LPS/ATP, IL-1β; read-out: hWB IC50
pIC50: −log10 of the molar value.

C[C@H]1C[C@@H](NC(=O)C2(c3ccc(OC(F)F)cc3O)CC2)CN(c2nnn[nH]2)C1 [Compound 19A] = > 6.00
C[C@@H]1CCN(c2nnn[nH]2)C[C@H](NC(=O)C2(c3ccc(OC(F)(F)F)cc3O)CC2)C1 (single isomer, unassigned) [62A*] = > 6.00

So what's the measured pIC50 for this one? C[C@@H]1CCN(c2nnn[nH]2)C[C@H](NC(=O)C2(c3ccc(C(F)(F)F)c(F)c3O)CC2)C1 (single isomer, unassigned) [31A*]
5.52 to 5.70

----------
Target: human NLRP3 (Homo sapiens (Human), UniProt Q96P20)
Test: Human PBMC NLRP3 Assay (LPS priming, ATP stimulation, cytokine measurement)
Format: cell-based
Details: PBMC IC50
MEASUREMENT KIND: IC50
Don't forget the unit after the value.

What measured IC50 goes with C[C@@H]1C[C@@H](NC(=O)C2(c3ccc(Cl)cc3)CC2)[C@H]2CC[C@@H]1N2c1nnn[nH]1 [80A*] ?
10 nM
